This collection of values is drawn from patent US20250333523A1.

target-desc: T1, His/Avi-CynoIL18BP (recombinant cynomolgus IL-18BP with His and Avi tags) (cynomolgus monkey)
T1 construct: also called cynomolgus IL-18BP-Avi-His
T1 chain: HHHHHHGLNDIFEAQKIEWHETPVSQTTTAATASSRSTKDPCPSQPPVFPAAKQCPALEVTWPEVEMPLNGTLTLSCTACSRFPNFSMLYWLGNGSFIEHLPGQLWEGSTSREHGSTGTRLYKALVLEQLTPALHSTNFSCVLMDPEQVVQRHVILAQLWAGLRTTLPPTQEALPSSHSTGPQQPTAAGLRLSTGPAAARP
test-protocol: ELISA, coated IL-18BP
measured-attribute: ELISA binding ratio (fold-change over background) (fold over background)
Give the value in fold over background but do not write fold over background after it.

Known ELISA binding ratio (fold-change over background) results, listed for orientation:
anti-IL18BP antibody BP-10 (antibody, human IgG1, V domains shown) VH: QVQLQQPGAERVEPGASVRLSCKTSGYTFTNYWMHWVKQRPGQGLEWIGMIHPESGSTNNNEKFKSKATLTVDKSSSTAYMQLSSLTSEDSAVYYCARWDRGYFDYWGQGTTLTVSS VL: DIVMTQSHKFMSTSVGDRVSITCKASQDVRSTVGWYQQRPGQSPKLLIYWTSTRHTGVPDRFTGSGSGTDYTLTISSVQAEDLALYYCQQHYSTPYTFGGGTTLEIK ... 48.1
anti-IL18BP antibody BP-15 (antibody, human IgG1, V domains shown) VH: QVQLVQSGAEVKKPGASVKVSCKASGYTFTTYDINWVRQAPGQGLEWMGIINPSGGSTSYAQKFQGRVTMTRDTSTSTVYMELSSLRSEDTAVYYCATGIGELDFDYWGQGTLVTVSS VL: DIQMTQSPSSLSASVGDRVTITCRASQSISSYLNWYQQKPGKAPKLLIYKASTLHNGVPSRFSGSGSGTDFTLTISNLQPEDFATYYCQQAISFPLTFGGGTKVEIK ... 34.5

Ask: For the binder shown here, anti-IL18BP antibody BP-02 (antibody, human IgG1, V domains shown) VH: EVQLQQSGPELVKPGASVKIPCKASGYTFTDYNMDWVKQSHGKSLEWIGNINTNNGGTVYNQKFKGKATLTVDKSSSTAYMELRSLTSEDTAVYYCARSDTTVVASRYYAMDYWGQGTSVTVSL VL: DIVLTQSPASLAMSLGKRATISCRASESVSIIATNLIHWYQQKPGQPPKLLIYHASNLETGVPARFSGSGSRTDFTLTIDPVEKDDVAIYYCLQSRKIPPTFGGGTKLEIK , give the reported ELISA binding ratio (fold-change over background).
Result: 29.7
